These data points were gathered from PubChem BioAssay AID2726.

# measurement-notes: inhibitors of JMH597 bacterial growth – JMH597 strain, OD600 absorbance, counter-screen for AI-2 quorum sensing project, confirmation (AID 2726)
# protocol-conditions: Vibrio harveyi JMH597 growth, 9 h, at 7.5 µM, active compounds read high, lacks LuxN and CqsS sensors
Some of the results follow.
Tick 1.0 if growth inhibition is 20% or greater. Tick 0.0 if growth inhibition is less than 20%.

{"compound": "COC(=O)C1CCN(C(=O)c2ccc3oc(Cc4ccc(Cl)cc4)nc3c2)CC1", "answer-label": 1.0}
{"compound": "Cc1ccsc1C(=O)OCC(=O)c1cc2ccccc2o1", "answer-label": 1.0}
{"compound": "O=C(c1cc(-c2cccc(O)c2)on1)N1CCc2ccccc2C1", "answer-label": 0.0}
{"compound": "Cc1nn(CC(=O)Nc2ccc(F)cc2)c(=O)c2ccccc12", "answer-label": 0.0}
{"compound": "O=C(Nc1ccc(F)c(Cl)c1)C1CCN(S(=O)(=O)c2cccnc2)CC1", "answer-label": 0.0}
{"compound": "Cc1ccc(Cc2nc(-c3cccc(C)c3)no2)cc1", "answer-label": 1.0}
{"compound": "Cc1cc(C(=O)OCC(=O)Nc2ccc(F)c(F)c2)c(C)o1", "answer-label": 0.0}
{"compound": "CC(CNc1ccc([N+](=O)[O-])cc1)NC(=O)c1ccccc1Br (stereo unspecified)", "answer-label": 0.0}
{"compound": "N/C(=N\\OC(=O)CCc1ccccc1)c1cccnc1", "answer-label": 0.0}
{"compound": "Cc1ccc(Oc2cnn(-c3ccccc3)c(=O)c2Br)cc1", "answer-label": 0.0}
{"compound": "O=C(CCC(=O)c1cccs1)Nc1nc2ccccc2s1", "answer-label": 0.0}
{"compound": "COC(=O)c1ccc(SCc2ccccc2)nc1", "answer-label": 0.0}
{"compound": "O=C(/C=C/c1ccc2c(c1)OCCO2)c1ccc(O)cc1", "answer-label": 0.0}
{"compound": "Cc1cccc(CSc2ccc(-c3cccs3)nn2)c1", "answer-label": 0.0}
{"compound": "O=C(COc1ncnc2ccccc12)NC(=O)NCc1ccccc1", "answer-label": 0.0}
{"compound": "O=C(Cn1cnc2ccccc2c1=O)Nc1cccc(S(=O)(=O)N2CCCCC2)c1", "answer-label": 1.0}
{"compound": "O=C1COc2ccc(S(=O)(=O)Nc3ccc(OC(F)(F)F)cc3)cc2N1", "answer-label": 1.0}
{"compound": "Cc1ccccc1NC(=O)CCOc1ccccc1", "answer-label": 0.0}
{"compound": "O=C(/C=C/c1ccc2c(c1)OCO2)NCc1ccc(F)cc1", "answer-label": 0.0}
{"compound": "CCOC(=O)c1nn(-c2cccc(C)c2)cc1C(=O)c1ccccc1", "answer-label": 0.0}
{"compound": "S=C(NCc1ccc(Cl)cc1)NC1CCCCC1", "answer-label": 0.0}
{"compound": "CC(=O)c1cccc(OCc2cc(C(=O)NC(C)Cc3cccnc3)no2)c1 (stereo unspecified)", "answer-label": 0.0}
{"compound": "CC(C)(C)c1ccc(OC2=CS(=O)(=O)c3ccccc32)cc1", "answer-label": 1.0}
{"compound": "CN(Cc1cnccn1)C(=O)c1cc(COc2cccc(C(F)(F)F)c2)on1", "answer-label": 0.0}
{"compound": "COc1ccc(/C(N)=N/OC(=O)Cc2ccccc2)cc1", "answer-label": 0.0}
{"compound": "Cc1ccccc1C(=O)Nc1ccc(N2CCCCCC2)cc1", "answer-label": 1.0}
